The entries below are paired with their reported melting point.
Structures can show the parent of a compound that is named as a salt.
measured property: melting point

• CNCCNCc1nnnn1-c1ccc(OC(C)C)cc1.Cl [18c] = 179.7 to 180.7 °C
• CC(C)Oc1ccc(-n2nnnc2CN2CCN(CCN)CC2)cc1 (as salt: hydrochloride) [18e] = 183.2 to 183.9 °C
• CNCCN(C)Cc1nnnn1-c1ccc(OC(F)(F)F)cc1.Cl [9f] = 194.3 to 195.2 °C
• CNCCCN(C)Cc1nnnn1-c1ccc(OC)cc1.Cl [10c] = 188.2 to 190.1 °C
• CNCCN(C)Cc1nnnn1-c1ccc(OC)cc1.Cl [9c] = 163.2 to 163.6 °C
